Experiment: Human HepG2 cell viability assay in 384 well format
Format: toxicity, cell-based
Set-up: dose 125 nL, time 70.5 hour; concentration not given beside the values
Conditions: HepG2 cells, read-out: Inhibition
Kindly supply the reported cytotoxicity at 70.5 h values for the records listed here.
One number for each entry, in %.

[[record]]
compound = "Cc1nc(C2CN(Cc3ccccc3C)CCO2)no1 (centres undefined)"
measure = "cytotoxicity at 70.5 h"
recorded_result = -11

[[record]]
compound = "Cc1cc(C(=O)N2CCCC2)ccc1NCc1nc(CC(C)C)no1"
measure = "cytotoxicity at 70.5 h"
recorded_result = -9.73

[[record]]
compound = "CS(=O)(=O)N1CC(=O)N(CCCc2ccccc2)CC(O)C1 (centres undefined)"
measure = "cytotoxicity at 70.5 h"
recorded_result = -8.69

[[record]]
compound = "Cc1nc2ccc(C(=O)N3C[C@@H](O)[C@H](N4CCCC4)C3)cc2[nH]1"
measure = "cytotoxicity at 70.5 h"
recorded_result = -1.69

[[record]]
compound = "O=C(c1ncccc1O)N1CCc2c(nc(-c3ccncc3)[nH]c2=O)C1"
measure = "cytotoxicity at 70.5 h"
recorded_result = 9.03

[[record]]
compound = "O=C(Nc1ccccn1)c1nc(N2CCCC2)ncc1Cl"
measure = "cytotoxicity at 70.5 h"
recorded_result = -6.57


// input: 3 compounds below; output: cytotoxicity at 70.5 h for each
1. CC(=O)N(Cc1ncc(C)o1)C1CCN(CCc2cnn(C)c2)C1 (centres undefined)
2. CN(C)C(=O)Cn1cc(C(=O)NCCc2cccc(Cl)c2Cl)nn1
3. O=C(C1CCCCC1)N1CCC2(COc3ncccc3S(=O)(=O)N2)C1 (centres undefined)

1. -11.2
2. 2.52
3. -4.42

###

Kindly supply the reported cytotoxicity at 70.5 h values for the records listed here.
Experiment: Human HepG2 cell viability assay in 384 well format
Format: toxicity, cell-based
Parameters: dose 125 nL, time 70.5 hour; concentration not given beside the values
Conditions: HepG2 cells, read-out: Inhibition
One number for each entry, in %.

Some solved cases for reference:
[[record]]
compound = "Cc1ccc(Cn2ccc(NS(C)(=O)=O)n2)cc1"
units_text = "%"
recorded_result = -10.8

[[record]]
compound = "Cn1cc(N2CCN(c3ccc(C#N)c(Cl)c3)CC2=O)cn1"
units_text = "%"
recorded_result = -14.1

[[record]]
compound = "O=C(C1CCOC1)N1CCC2(CC1)COCCN(Cc1ccncc1)C2 (centres undefined)"
units_text = "%"
recorded_result = -11.2

[[record]]
compound = "COCCCN1CCC(NC(=O)C2CC2)CC1"
units_text = "%"
recorded_result = -4.57

[[record]]
compound = "Cc1cnn(CC2CCCCN2Cc2nnc(C3CC3)n2C)c1 (centres undefined)"
units_text = "%"
recorded_result = -6.92

[[record]]
compound = "CN(CCc1ccncc1)Cc1nccn1Cc1ccccc1"
units_text = "%"
recorded_result = 8.96


// input: 6 compounds below; output: cytotoxicity at 70.5 h for each
1. COCCN1CCC2(COCc3c(C)nc(N4CCOCC4)nc32)C1 (centres undefined)
2. O=S(=O)(c1ccccc1Br)N1CCC2(CC1)OCCS2
3. O=C(NC1CC1)C1CCN(c2nc3nc[nH]c(=O)c3s2)CC1
4. COCc1cc(NCC(F)(F)F)n2nccc2n1
5. CC(=O)Nc1ccc(CNCC(O)c2ccc(C)cc2)cc1 (centres undefined)
6. O=C(Cc1cccs1)N1CCC2(CC1)COCCN2CC1CC1

1. -1.01
2. -2.19
3. -20.8
4. -12.3
5. -8.81
6. -8.87

// input: 5 compounds below; output: cytotoxicity at 70.5 h for each
1. COc1ncc(CN2CCC3(CCCN(CC4CCCCC4)C3)C2)cn1 (centres undefined)
2. Cc1nc(C)n(CC2CCCCN2CCOc2ccc(C#N)cc2)n1 (centres undefined)
3. N#Cc1cccc(CN2C[C@@H](NC(=O)C3CC3)[C@H]3OCCC[C@H]32)c1
4. Cc1ccccc1CC(=O)NCc1cnc(CC2CCN(C)CC2)cn1
5. CN(C)S(=O)(=O)N1CCN(C(=O)c2ccc3ccn(C)c3c2)CC1

26.8
-9.43
-12.1
-4.57
-7.35

// input: 7 compounds below; output: cytotoxicity at 70.5 h for each
1. O=c1cc(CN2CCCC2)nc2n1CCCN(Cc1ccco1)C2
2. CN(C)c1nc2c(c(N(C)Cc3n[nH]c4c3CCCC4)n1)CCNCC2
3. COC(=O)NCC(=O)N1CCCC(c2ncc[nH]2)C1 (centres undefined)
4. CN(C)S(=O)(=O)N1CC[C@]2(C[C@@H](OCC3CC3)CO2)C1
5. CC(C)[C@H](NS(C)(=O)=O)C(=O)NCc1cc(-c2ccccc2)nn1C
6. Cc1oc(C(C)C)cc1C(=O)N1CCN(c2cnn(C)c(=O)c2)CC1
7. Cn1cc(C2=CCN(CCCOc3ccc(C(N)=O)cc3)CC2)cn1

-2.44
-7.02
-27.3
0.733
7.09
-3.48
-11.2
